target: PriA-SSB (Klebsiella pneumoniae subsp. pneumoniae, UniProt A6TGC5)
Sequence (A6TGC5 whole entry): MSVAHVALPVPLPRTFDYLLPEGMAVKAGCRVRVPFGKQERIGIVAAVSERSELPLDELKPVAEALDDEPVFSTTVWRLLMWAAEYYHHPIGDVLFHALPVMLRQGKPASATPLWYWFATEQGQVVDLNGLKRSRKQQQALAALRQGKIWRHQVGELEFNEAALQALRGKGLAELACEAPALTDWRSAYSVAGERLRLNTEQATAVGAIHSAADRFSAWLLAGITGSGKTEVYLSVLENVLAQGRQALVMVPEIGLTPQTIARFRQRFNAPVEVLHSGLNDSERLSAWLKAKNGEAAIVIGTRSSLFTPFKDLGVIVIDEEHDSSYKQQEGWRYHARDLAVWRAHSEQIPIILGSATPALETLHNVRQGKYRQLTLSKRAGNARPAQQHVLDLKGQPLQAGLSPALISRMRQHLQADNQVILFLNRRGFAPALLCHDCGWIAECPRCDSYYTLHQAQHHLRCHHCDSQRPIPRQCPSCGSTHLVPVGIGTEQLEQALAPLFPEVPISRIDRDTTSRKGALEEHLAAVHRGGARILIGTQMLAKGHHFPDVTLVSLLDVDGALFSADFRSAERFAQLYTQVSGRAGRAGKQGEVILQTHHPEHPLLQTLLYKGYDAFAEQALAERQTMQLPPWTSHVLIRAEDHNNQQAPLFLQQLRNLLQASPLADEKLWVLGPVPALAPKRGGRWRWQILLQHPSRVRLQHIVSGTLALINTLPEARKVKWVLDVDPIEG
pIC50: −log10 of the molar value.
# binarize pIC50: threshold 5 inclusive, high side criterion met, low side criterion not met

- Cc1n[nH]c(SCC(=O)Nc2nnc(-c3ccccn3)[nH]2)n1: criterion not met
- CC(C)N(C)S(=O)(=O)c1ccc(F)c(C(=O)Nc2nc(-c3ccccn3)cs2)c1: criterion met

----------
This document collects IC50 values reported for PriA-SSB (Klebsiella pneumoniae subsp. pneumoniae, UniProt A6TGC5).
Property: IC50

- O=C1CC2(CCOC2)C(C(=O)Nc2nc(-c3ccccn3)cs2)CN1 (stereo not drawn): 12.6 µM
- O=C(CN1C(=O)COc2ccc([N+](=O)[O-])cc21)Nc1nc(-c2ccccn2)cs1: 12.4 µM
- CC1CC(Nc2nc(-c3ccccn3)nc3c2CCC3)CC(C)N1 (stereo not drawn): 12.1 µM
